Source of measurements: the supplement of paper PMC12067926

# System: Pseudomonas 1 (Pseudomonas baetica)
# ASSAY PROCEDURE: relative growth (AUC of 72 h growth curve relative to DMSO control, dAUC) (ratio); higher = more growth (less inhibition), active = hit call of the paper
# CONDITIONS USED: 20 µM
Each item that follows carries a reported relative growth.
Reply briefly: the number, and no unit.

See these solved cases before continuing.
COP(=O)(NC(C)=O)SC (stereo not drawn) : 1.07
Cc1cccc2sc3nncn3c12 : 1.18
Nc1c(Cl)c(F)nc(OCC(=O)O)c1Cl : 0.977
C#CCOc1ccc(CCNC(=O)C(OCC#C)c2ccc(Cl)cc2)cc1OC (stereo not drawn) : 0.979

// query relative growth value for entry CCNC(=O)NC(=O)/C(C#N)=N/OC
0.924

// repeat for Fc1ccc([C@]2(Cn3cncn3)O[C@H]2c2ccccc2Cl)cc1 (racemic) and report
0.942

// repeat for CC(C)N(C(=O)COc1nnc(C(F)(F)F)s1)c1ccc(F)cc1 and report
1.07

// repeat for COc1cc(C)c(C(=O)c2c(OC)ccc(Br)c2C)c(OC)c1OC and report
0.978

// repeat for O=C1C=C(N(Cc2ccc(Cl)nc2)CC(F)F)CO1 and report
1.15

// repeat for CC1(C)[C@H](/C=C(\Cl)C(F)(F)F)[C@@H]1C(=O)OC(C#N)c1cccc(Oc2ccccc2)c1 (stereo partly drawn) and report
1.07

---

# System: Arthrobacter 1 (Arthrobacter humicola)
# ASSAY PROCEDURE: relative growth (AUC of 72 h growth curve relative to DMSO control, dAUC) (ratio); higher = more growth (less inhibition), active = hit call of the paper
# CONDITIONS USED: 20 µM
Each item that follows carries a reported relative growth.

See these solved cases before continuing.
COc1ccc(-c2ccccc2)cc1NNC(=O)OC(C)C : 0.913 (inactive)
Cc1c(COC(=O)[C@@H]2[C@H](/C=C(\Cl)C(F)(F)F)C2(C)C)cccc1-c1ccccc1 (racemic) : 1.17 (inactive)
CCCSP(=O)(OCC)Oc1ccc(Br)cc1Cl (stereo unspecified) : 0.894 (inactive)
CCc1nn(C)c(C(=O)NCc2ccc(Oc3ccc(C)cc3)cc2)c1Cl : 1.04 (inactive)
CC(Oc1ccc(Oc2nc3ccc(Cl)cc3o2)cc1)C(=O)O (stereo unspecified) : 1.08 (inactive)
CCc1cc(C)cc(CC)c1-c1c(OC(=O)C(C)(C)C)n2n(c1=O)CCOCC2 : 1.01 (inactive)

// query relative growth value for entry CCCCC(C#N)(Cn1cncn1)c1ccc(Cl)cc1 (stereo unspecified)
0.975 (inactive)

// repeat for CCC(C)(C)C(=O)OC1=C(c2ccc(Cl)cc2Cl)C(=O)OC12CCCCC2 and report
0.721 (inactive)

// repeat for CC(C)OC(=O)Nc1cccc(Cl)c1 and report
0.95 (inactive)

// repeat for CC(C)(C)C(O)(CCc1ccc(Cl)cc1)Cn1cncn1 (stereo unspecified) and report
0.544 (active)

// repeat for O=[N+]([O-])c1cc(C(F)(F)F)c(Cl)c([N+](=O)[O-])c1Nc1ncc(C(F)(F)F)cc1Cl and report
0.035 (active)

// repeat for CC(C1CC1)C(O)(Cn1cncn1)c1ccc(Cl)cc1 (stereo unspecified) and report
0.89 (inactive)

// repeat for CS(=O)(=O)c1ccc(C(=O)C2C(=O)CCCC2=O)c([N+](=O)[O-])c1 and report
1 (inactive)

// repeat for Cc1cc(C)c(C2=C(OC(=O)CC(C)(C)C)C3(CCCC3)OC2=O)c(C)c1 and report
0.927 (inactive)

// repeat for Oc1ccc(Cl)cc1Cc1cc(Cl)ccc1O and report
0.00578 (active)

---

# System: Flavobacterium 1 (Flavobacterium glaciei)
# ASSAY PROCEDURE: relative growth (AUC of 72 h growth curve relative to DMSO control, dAUC) (ratio); higher = more growth (less inhibition), active = hit call of the paper;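 active = growth AUC significantly below the DMSO wells by Dunnett test; inactive = the rest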
# CONDITIONS USED: 20 µM
Please answer using one outcome listed in active, inactive

COCC(C)N(C(=O)CCl)c1c(C)csc1C (centres undefined) : inactive
CC(C)(C)[C@@H](O)[C@H](Oc1ccc(Cl)cc1)n1cncn1 : inactive
CC1(C)C(C=C(Cl)Cl)C1C(=O)OC(C#N)c1ccc(F)c(Oc2ccccc2)c1 (centres undefined) : inactive
CC(C1CC1)C(O)(Cn1cncn1)c1ccc(Cl)cc1 (centres undefined) : inactive
ClC1C(Cl)C(Cl)C(Cl)C(Cl)C1Cl (centres undefined) : inactive

Outcome? CCOC(=O)OC1=C(c2cc(C)ccc2C)C(=O)N[C@]12CC[C@@H](OC)CC2
inactive

// repeat for CCOP(=S)(OCC)Oc1cc(C)nc(C(C)C)n1 and report
inactive

// repeat for CCC(=O)Nc1ccc(Cl)c(Cl)c1 and report
inactive

// repeat for COC(=O)Nc1nc2ccccc2[nH]1 and report
inactive

// repeat for O=C(O)c1nc(Cl)ccc1Cl and report
inactive

---

# Tested on: Pseudomonas 1 (Pseudomonas baetica)
# ASSAY PROCEDURE: relative growth (AUC of 72 h growth curve relative to DMSO control, dAUC) (ratio); higher = more growth (less inhibition), active = hit call of the paper;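 active = growth AUC significantly below the DMSO wells by Dunnett test; inactive = the rest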
# CONDITIONS USED: 20 µM
Please answer using one outcome listed in t for active, f for inactive

Outcome? CCCCN(CCCC)SN(C)C(=O)Oc1cccc2c1OC(C)(C)C2
t

// repeat for O=[N+]([O-])c1cc(C(F)(F)F)c(Cl)c([N+](=O)[O-])c1Nc1ncc(C(F)(F)F)cc1Cl and report
f

// repeat for Cc1cc(C(F)(C(F)(F)F)C(F)(F)F)ccc1NC(=O)c1cccc(I)c1C(=O)NC(C)(C)CS(C)(=O)=O and report
f

// repeat for COC(=O)Nc1nc2ccccc2[nH]1 and report
f

// repeat for Oc1ccc(Cl)cc1Cc1cc(Cl)ccc1O and report
f

// repeat for Cc1c(COC(=O)[C@@H]2[C@H](/C=C(\Cl)C(F)(F)F)C2(C)C)cccc1-c1ccccc1 (racemic) and report
f

// repeat for O=C(O)COc1ccc(Cl)cc1Cl and report
f

// repeat for CN(C)C(CSS(=O)(=O)O)CSS(=O)(=O)O and report
f

// repeat for COC(=O)NC(=S)Nc1ccccc1NC(=S)NC(=O)OC and report
f

// repeat for CCSC(C)CC1CC(=O)C(/C(CC)=N/OC/C=C/Cl)=C(O)C1 (mixture of isomers) and report
f

// repeat for N#CC(CCc1ccc(Cl)cc1)(Cn1cncn1)c1ccccc1 (stereo not drawn) and report
f

// repeat for CCc1cccc(C)c1N(C(=O)CCl)[C@@H](C)COC and report
f

// repeat for CCOP(=S)(OCC)Oc1nc(Cl)c(Cl)cc1Cl and report
f

// repeat for CCN(CC)c1nc(C)cc(OP(=S)(OC)OC)n1 and report
f

---

Each item that follows carries a reported relative growth.
# System: Oryzobacter 1 (Oryzobacter terrae)
# ASSAY PROCEDURE: relative growth (AUC of 72 h growth curve relative to DMSO control, dAUC) (ratio); higher = more growth (less inhibition), active = hit call of the paper
# CONDITIONS USED: 20 µM
Reply briefly: the number, and no unit.

See these solved cases before continuing.
CCSC(C)CC1CC(=O)C(/C(CC)=N/OC/C=C/Cl)=C(O)C1 (mixture of isomers) : 1.03
Cc1c(COC(=O)[C@@H]2[C@H](/C=C(\Cl)C(F)(F)F)C2(C)C)cccc1-c1ccccc1 (racemic) : 1.07
CC(C)N1C(=O)N(c2ccccc2)CS/C1=N\C(C)(C)C : 0.973
CC1(C)CON(Cc2ccccc2Cl)C1=O : 1.13

Let us examine a further case.
// query relative growth value for entry O=C1c2ccccc2C(=O)N1SC(Cl)(Cl)Cl
0.988

---

# System: Community 9
# ASSAY PROCEDURE: relative growth (AUC of 72 h growth curve relative to DMSO control, dAUC) (ratio); higher = more growth (less inhibition), active = hit call of the paper
# CONDITIONS USED: 20 µM
OBSERVABLE: relative growth

COC(=O)N(C(=O)N1CO[C@@]2(C(=O)OC)Cc3cc(Cl)ccc3C2=N1)c1ccc(OC(F)(F)F)cc1 : 1.01 (inactive)
CCC(=O)Nc1ccc(Cl)c(Cl)c1 : 1.03 (inactive)
COP(N)(=O)SC (stereo unspecified) : 0.575 (active)
O=C(Nc1ccccc1-c1ccc(Cl)cc1)c1cccnc1Cl : 0.999 (inactive)
CC(C)NC(=O)N1CC(=O)N(c2cc(Cl)cc(Cl)c2)C1=O : 0.94 (inactive)

Let us examine a further case.
Fill in the recorded relative growth for this molecule, with Community 9 as test system: CC1=NNC(=O)N(/N=C/c2cccnc2)C1
1.2 (inactive)

---

# Tested on: Aeromonas 2 (Aeromonas sobria)
# ASSAY PROCEDURE: relative growth (AUC of 72 h growth curve relative to DMSO control, dAUC) (ratio); higher = more growth (less inhibition), active = hit call of the paper
# CONDITIONS USED: 20 µM
Mark Not satisfied for relative growth values under 1, and Satisfied for everything at or above.

Sample answers from the record:
CCc1nn(C)c(C(=O)NCc2ccc(Oc3ccc(C)cc3)cc2)c1Cl : Satisfied
CC1(C)[C@H](C(=O)O[C@H](C#N)c2cccc(Oc3ccccc3)c2)[C@@H]1C=C(Br)Br : Satisfied

Item Cc1nc(N(C)C)nc(OC(=O)N(C)C)c1C with relative growth of 1 or above?
Not satisfied

// repeat for ClC1C(Cl)C(Cl)C(Cl)C(Cl)C1Cl (centres undefined) and report
Not satisfied

// repeat for N#Cc1nn(-c2c(Cl)cc(C(F)(F)F)cc2Cl)c(N)c1[S+]([O-])C(F)(F)F (centres undefined) and report
Not satisfied

// repeat for C[N+](C)(C)CCCl and report
Not satisfied

// repeat for N#CC(CCc1ccc(Cl)cc1)(Cn1cncn1)c1ccccc1 (centres undefined) and report
Not satisfied

// repeat for Fc1ccc(Oc2ccnc3cc(Cl)cc(Cl)c23)cc1 and report
Satisfied

// repeat for COCC(=O)N(c1c(C)cccc1C)C(C)C(=O)OC (centres undefined) and report
Satisfied
